molecular target: human TLR7 (Homo sapiens (Human)); assay: TLR7 inhibition reporter assay (HEK-Blue SEAP); type: cell-based; details: HEK-Blue cells overexpressing human TLR7, gardiquimod 7.5 μM stimulation
Sequence (Q9NYK1 27-1049): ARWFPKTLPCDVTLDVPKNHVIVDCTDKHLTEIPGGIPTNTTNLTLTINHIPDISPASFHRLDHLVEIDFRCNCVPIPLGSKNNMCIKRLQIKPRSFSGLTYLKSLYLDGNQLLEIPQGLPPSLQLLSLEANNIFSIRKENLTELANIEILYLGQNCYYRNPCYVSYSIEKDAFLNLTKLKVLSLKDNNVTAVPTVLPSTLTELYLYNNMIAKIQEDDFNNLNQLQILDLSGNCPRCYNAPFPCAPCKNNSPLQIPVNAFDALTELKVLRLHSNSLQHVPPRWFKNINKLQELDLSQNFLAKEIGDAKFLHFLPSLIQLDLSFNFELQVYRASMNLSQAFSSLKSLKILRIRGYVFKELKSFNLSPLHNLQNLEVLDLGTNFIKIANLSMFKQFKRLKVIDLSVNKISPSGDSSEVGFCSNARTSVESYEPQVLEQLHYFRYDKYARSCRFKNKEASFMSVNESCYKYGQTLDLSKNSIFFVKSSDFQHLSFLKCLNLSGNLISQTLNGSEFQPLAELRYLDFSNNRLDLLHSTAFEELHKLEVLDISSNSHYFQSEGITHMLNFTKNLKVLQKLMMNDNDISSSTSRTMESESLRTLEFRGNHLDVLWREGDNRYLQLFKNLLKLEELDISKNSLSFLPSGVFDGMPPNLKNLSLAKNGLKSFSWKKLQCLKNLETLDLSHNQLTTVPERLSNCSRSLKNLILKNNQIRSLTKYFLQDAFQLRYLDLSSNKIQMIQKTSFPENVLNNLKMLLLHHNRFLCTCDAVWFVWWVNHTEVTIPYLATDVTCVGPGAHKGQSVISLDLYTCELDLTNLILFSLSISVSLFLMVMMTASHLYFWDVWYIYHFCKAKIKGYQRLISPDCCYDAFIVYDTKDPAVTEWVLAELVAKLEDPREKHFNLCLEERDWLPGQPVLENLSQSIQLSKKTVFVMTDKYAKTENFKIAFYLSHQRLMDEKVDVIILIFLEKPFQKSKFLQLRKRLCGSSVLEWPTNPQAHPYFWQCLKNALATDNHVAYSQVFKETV
Note that class boundaries on IC50 are low band: < 4 nM; middle band: ≥ 4 nM and < 10 nM; high band: ≥ 10 nM

INSERT INTO measurements (compound, label) VALUES
  ('COc1cc(-c2[nH]c3cnc(C4CCC(NCC(C)(C)C)C4)cc3c2C(C)C)cn2ncnc12 (stereo not drawn) [Example 95]', 'high band'),
  ('COc1cc(-c2[nH]c3cnc(N4CCN(C(=O)CN(C)C)CC4)c(F)c3c2C(C)C)cn2ncnc12', 'low band'),
  ('CCN(C)C1CCC(c2cc3c(C(C)C)c(-c4cc(OC)c5ncnn5c4)[nH]c3cn2)C1 (stereo not drawn) [Example 177]', 'middle band'),
  ('CCN(C)C1CCC(c2ncc3[nH]c(-c4cc(OC)c5ncnn5c4)c(C(C)C)c3c2F)CC1 (stereo not drawn) [Example 228]', 'low band'),
  ('COc1cc(-c2[nH]c3cnc(C4CCC(NC[C@@H](F)C(C)(C)O)CC4)c(C)c3c2C(C)C)cn2ncnc12 (stereo partly drawn) [Example 117]', 'high band'),
  ('CCN(C)C1CCC(c2cc3c(C(C)C)c(-c4cc(OC)c5ncnn5c4)[nH]c3cn2)C1 (stereo not drawn) [Example 249]', 'high band'),
  ('COc1cc(-c2[nH]c3cnc(C4CCC(NC[C@@H](F)C(C)(C)O)CC4)c(C)c3c2C(C)C)cn2ncnc12 (stereo partly drawn) [Example 89]', 'middle band'),
  ('COc1cc(-c2[nH]c3cnc(N4CCC(N5CCC5)CC4)c(C)c3c2C(C)C)cn2ncnc12', 'low band'),
  ('CCN(C)C1CCC(c2cc3c(C(C)C)c(-c4cc(OC)c5ncnn5c4)[nH]c3cn2)C1 (stereo not drawn) [Example 272]', 'middle band'),
  ('COc1cc(-c2[nH]c3cnc(N4CCN(CC(N)=O)CC4)c(C)c3c2C(C)C)cn2ncnc12', 'middle band');

Exercise: Entry `COc1cc(-c2[nH]c3cnc(N4CCC(NC[C@@H](F)C(C)(C)O)CC4)c(C)c3c2C(C)C)cn2ncnc12` belongs to which category?
Solution: middle band

Exercise: Then what about the compound `Cc1cc(-c2[nH]c3cnc(N4CCC(NC5COC5)CC4)c(F)c3c2C(C)C)cn2ncnc12` ?
Solution: low band

Exercise: How about `COc1cc(-c2[nH]c3cnc(N4CCN(C5COC5)C[C@H]4C)c(F)c3c2C(C)C)cn2ncnc12` ?
Solution: high band

Exercise: Then this compound: `Cc1cc(-c2[nH]c3cnc(C4CCN(CC(N)=O)CC4)c(F)c3c2C(C)C)cn2ncnc12`
Solution: low band

Exercise: Moving on to `COc1cc(-c2[nH]c3cnc(N4CCC(NCC5(C)COC5)CC4)c(F)c3c2C(C)C)cn2ncnc12`
Solution: middle band

Exercise: And COc1cc(-c2[nH]c3cnc(C4CCC(NC5COC5)CC4)cc3c2C(C)C)cn2ncnc12 (stereo not drawn) [Example 330] ?
Solution: low band

Exercise: Next compound: `Cc1c(-c2[nH]c3cnc(N4CC5(C4)CN(C(C)C)C5)c(F)c3c2C(C)C)cn2ncnc2c1C`
Solution: high band

Exercise: Also COc1cc(-c2[nH]c3cnc(C4CCC(NCC(C)(C)OC)C4)cc3c2C(C)C)cn2ncnc12 (stereo not drawn) [Example 123] , if possible.
Solution: high band

Exercise: Now the same for `COc1cc(-c2[nH]c3cnc(N4CCN(C(=O)CN(C)C)C[C@H]4C)c(F)c3c2C(C)C)cn2ncnc12`
Solution: middle band

Exercise: Please give the result for COc1cc(-c2[nH]c3cnc(C4CCC(NCC5(C)COC5)CC4)c(C)c3c2C(C)C)cn2ncnc12 (stereo not drawn) [Example 269] too.
Solution: middle band

----------
biological target: human TLR9 (Homo sapiens (Human), UniProt Q9NR96); test: TLR9 inhibition reporter assay (HEK-Blue SEAP); settings: read-out: TLR9 IC50; HEK-Blue cells overexpressing human TLR9; ODN2006 5 nM stimulation; SEAP reporter
Sequence (Q9NR96 26-1032): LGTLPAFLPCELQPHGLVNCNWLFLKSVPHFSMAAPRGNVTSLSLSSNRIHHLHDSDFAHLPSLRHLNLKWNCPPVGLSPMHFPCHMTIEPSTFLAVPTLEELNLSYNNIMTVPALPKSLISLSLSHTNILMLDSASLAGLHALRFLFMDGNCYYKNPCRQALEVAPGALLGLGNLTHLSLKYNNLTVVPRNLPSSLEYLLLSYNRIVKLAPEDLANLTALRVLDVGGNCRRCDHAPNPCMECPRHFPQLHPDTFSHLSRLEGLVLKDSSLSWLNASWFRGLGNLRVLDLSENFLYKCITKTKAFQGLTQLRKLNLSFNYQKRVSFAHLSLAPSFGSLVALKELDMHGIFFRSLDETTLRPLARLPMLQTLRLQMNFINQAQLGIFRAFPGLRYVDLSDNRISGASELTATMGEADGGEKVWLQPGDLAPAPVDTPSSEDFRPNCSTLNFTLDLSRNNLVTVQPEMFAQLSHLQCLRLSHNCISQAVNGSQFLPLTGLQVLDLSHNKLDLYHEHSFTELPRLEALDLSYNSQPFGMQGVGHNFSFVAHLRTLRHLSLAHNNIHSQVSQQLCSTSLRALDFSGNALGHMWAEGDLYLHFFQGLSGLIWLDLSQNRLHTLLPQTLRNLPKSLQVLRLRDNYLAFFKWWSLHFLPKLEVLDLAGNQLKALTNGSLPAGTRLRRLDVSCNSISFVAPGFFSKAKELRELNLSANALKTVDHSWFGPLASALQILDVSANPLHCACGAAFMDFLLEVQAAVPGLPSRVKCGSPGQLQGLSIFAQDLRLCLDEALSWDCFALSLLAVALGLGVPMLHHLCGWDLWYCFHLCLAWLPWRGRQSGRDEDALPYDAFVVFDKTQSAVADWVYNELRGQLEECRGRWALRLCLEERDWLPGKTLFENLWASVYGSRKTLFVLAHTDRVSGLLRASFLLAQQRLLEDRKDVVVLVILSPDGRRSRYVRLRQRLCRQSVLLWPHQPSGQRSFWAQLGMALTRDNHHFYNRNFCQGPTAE
Label Y when IC50 is strictly below 5 µM; otherwise label N.

Record excerpt, results attached:
INSERT INTO results (compound, label) VALUES
  ('Cc1c(-c2[nH]c3cnc(N4CCN(CC(N)=O)C[C@H]4C)c(F)c3c2C(C)C)cn2ncnc2c1C [Example 464]', 'N'),
  ('Cc1c(-c2[nH]c3cnc(N4CCN(CCS(C)(=O)=O)C[C@H]4C)c(F)c3c2C(C)C)cn2ncnc2c1C [Example 463]', 'N');

Exercise: Please indicate whether the reported IC50 of COc1cc(-c2[nH]c3cnc(N4CCN(C5CCOCC5)C[C@H]4C)c(F)c3c2C(C)C)cn2ncnc12 [Example 452] is strictly below 5 µM.
Solution: N

Exercise: Now consider COc1cc(-c2[nH]c3cnc(N4CCN(CC(C)C)C[C@H]4C)c(F)c3c2C(C)C)cn2ncnc12 [Example 453] .
Solution: N

Exercise: Item: COCCN1CCC(c2ncc3[nH]c(-c4cc(C)nc(C)c4)c(C(C)C)c3c2F)CC1 [Example 216]
Solution: Y

----------
I'd be grateful if you could share measured pIC50 for these entries.
molecular target: human TLR8 (Homo sapiens (Human), UniProt Q9NR97); experiment: TLR8 inhibition reporter assay (HEK-Blue SEAP);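 further: SEAP driven by IFN-β minimal promoter with five NF-κB and AP-1 sites, compounds tested 0.05 nM to 50 µM, 22 h incubation, inhibition relative to agonist plus DMSO wells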
Sequence (Q9NR97 27-1041): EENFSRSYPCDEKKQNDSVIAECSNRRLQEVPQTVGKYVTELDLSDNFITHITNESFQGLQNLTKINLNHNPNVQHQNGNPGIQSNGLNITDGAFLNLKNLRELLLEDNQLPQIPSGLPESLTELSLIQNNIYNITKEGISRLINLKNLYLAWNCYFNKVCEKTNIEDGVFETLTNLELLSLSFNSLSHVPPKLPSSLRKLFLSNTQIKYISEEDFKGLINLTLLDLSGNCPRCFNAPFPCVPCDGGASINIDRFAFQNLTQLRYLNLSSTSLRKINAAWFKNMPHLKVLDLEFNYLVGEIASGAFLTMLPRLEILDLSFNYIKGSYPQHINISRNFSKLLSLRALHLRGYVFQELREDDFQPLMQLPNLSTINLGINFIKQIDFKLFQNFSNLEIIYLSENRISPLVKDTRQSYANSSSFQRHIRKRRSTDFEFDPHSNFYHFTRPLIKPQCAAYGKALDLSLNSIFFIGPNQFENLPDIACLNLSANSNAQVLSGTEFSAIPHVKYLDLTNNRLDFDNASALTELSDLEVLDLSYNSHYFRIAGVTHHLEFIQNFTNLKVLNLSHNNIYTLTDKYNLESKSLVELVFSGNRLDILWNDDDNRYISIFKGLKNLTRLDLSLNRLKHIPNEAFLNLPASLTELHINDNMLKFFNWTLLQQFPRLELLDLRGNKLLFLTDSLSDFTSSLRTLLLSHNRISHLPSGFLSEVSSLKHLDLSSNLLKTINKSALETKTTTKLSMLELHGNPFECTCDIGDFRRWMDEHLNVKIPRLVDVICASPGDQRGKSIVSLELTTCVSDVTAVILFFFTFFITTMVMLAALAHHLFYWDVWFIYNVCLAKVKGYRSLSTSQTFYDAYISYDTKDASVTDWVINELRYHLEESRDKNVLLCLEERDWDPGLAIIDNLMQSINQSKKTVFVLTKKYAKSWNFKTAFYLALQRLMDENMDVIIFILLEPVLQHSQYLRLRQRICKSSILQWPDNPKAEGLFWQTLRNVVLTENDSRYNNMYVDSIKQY
One number for each entry, as −log10 of the molar value.

Solved entries (count: 2):
INSERT INTO results (molecule_smiles, value_type, result_number) VALUES
  ('COc1cc(-c2[nH]c3cnc(N4CCNCC4)c(Cl)c3c2C(C)C)cn2ncnc12', 'pIC50', 8.85),
  ('CCCN1CCN(c2ncc3[nH]c(-c4cc(OC)c5ncnn5c4)c(C(C)C)c3c2F)[C@H](C)C1', 'pIC50', 8.19);

Exercise: Fill blank: measured pIC50 of the compound `Cc1c(-c2[nH]c3cnc(N4CC5(C4)CN(C4COC4)C5)c(F)c3c2C(C)C)cn2ncnc2c1C` is ____.
Solution: 8.80

----------
target: UniProt Q9NYK1; assay: TLR7 inhibition reporter assay (HEK-Blue SEAP); conditions: HEK-Blue cells overexpressing human TLR7, gardiquimod 7.5 μM stimulation
Entries whose IC50 is below 7 nM take Fulfilled; entries at or above 7 nM take Not fulfilled.

INSERT INTO measurements (molecule, system_tested, label) VALUES
  ('Cc1c(-c2[nH]c3cnc(C4CCC(N5CC6(COC6)C5)CC4)c(C)c3c2C(C)C)cn2ncnc2c1C (stereo not shown) [Example 142]', 'UniProt Q9NYK1', 'Not fulfilled');

Exercise: Check if IC50 falls below 7 nM for COc1cc(-c2[nH]c3cnc(N4CC5(CNC5)C4)c(F)c3c2C(C)C)cn2ncnc12 [Example 355] .
Solution: Not fulfilled

Exercise: Query COc1cc(-c2[nH]c3cnc(N4CCC(N5CCOCC5)CC4)c(C)c3c2C(C)C)cn2ncnc12 [Example 278] next
Solution: Fulfilled

Exercise: Ok, now CNC(=O)CN1CCN(c2cc3c(C(C)C)c(-c4cc(C)c5ncnn5c4)[nH]c3cn2)CC1 [Example 302]
Solution: Not fulfilled

Exercise: Another molecule to check: CNCC(=O)N1CCC(c2ncc3[nH]c(-c4cc(OC)c5ncnn5c4)c(C(C)C)c3c2F)CC1 [Example 10]
Solution: Fulfilled

Exercise: How about Cc1c(-c2[nH]c3cnc(N4CCN(CCS(C)(=O)=O)C[C@H]4C)c(F)c3c2C(C)C)cn2ncnc2c1C [Example 463] ?
Solution: Not fulfilled

----------
Exercise: state measured IC50 for each of the compounds provided.
biological target: human TLR9 (Homo sapiens (Human), UniProt Q9NR96); experiment: TLR9 inhibition reporter assay (HEK-Blue SEAP)
Answers are plain numbers, in µM.

INSERT INTO results (molecule_smiles, system_tested, readout_units, result_number) VALUES
  ('CCCN1CCN(c2ncc3[nH]c(-c4cc(OC)c5ncnn5c4)c(C(C)C)c3c2F)[C@H](C)C1', 'human TLR9 (Homo sapiens (Human), UniProt Q9NR96)', 'µM', 7.67);

Please examine the following record next.
Exercise: Sample `COc1cc(-c2[nH]c3cnc(N4CCNCC4)c(Cl)c3c2C(C)C)cn2ncnc12` — what was its IC50?
Solution: 0.664

----------
target: human TLR9 (Homo sapiens (Human), UniProt Q9NR96); test: TLR9 inhibition reporter assay (HEK-Blue SEAP); conditions: read-out: TLR9 IC50; HEK-Blue cells overexpressing human TLR9, ODN2006 5 nM stimulation, SEAP reporter;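 further: SEAP driven by IFN-β minimal promoter carrying five NF-κB and AP-1 sites, 22 h at 37 °C, compounds 0.05 nM–50 µM, inhibition scaled between agonist-plus-DMSO and reference-inhibitor wells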
value_type: IC50 (nM)
Give bare numbers, in nM.

The cases that follow already have their IC50 on record.
INSERT INTO results (compound, value_type, readout_units, result_number) VALUES
  ('COc1cc(-c2[nH]c3cnc(C4CCC(NC5CCOCC5)CC4)c(C)c3c2C(C)C)cn2ncnc12 (stereo not shown) [Example 176]', 'IC50', 'nM', 325),
  ('COc1cc(-c2[nH]c3cnc(C4CCC(NC5CCOCC5)CC4)c(C)c3c2C(C)C)cn2ncnc12 (stereo not shown) [Example 241]', 'IC50', 'nM', 285),
  ('COc1cc(-c2[nH]c3cnc(C4CCC(NC5CCOCC5)CC4)c(F)c3c2C(C)C)cn2ncnc12 (stereo not shown) [Example 160]', 'IC50', 'nM', 1280),
  ('COc1cc(-c2[nH]c3cnc(C4CCC(NC5(C)COC5)CC4)c(F)c3c2C(C)C)cn2ncnc12 (stereo not shown) [Example 105]', 'IC50', 'nM', 2250),
  ('Cc1c(-c2[nH]c3cnc(C4CCC(NCC5(C)COC5)CC4)c(C)c3c2C(C)C)cn2ncnc2c1C (stereo not shown) [Example 203]', 'IC50', 'nM', 513),
  ('Cc1cc(-c2[nH]c3cnc(C4CCC(N5CC6(COC6)C5)CC4)c(F)c3c2C(C)C)cn2ncnc12 (stereo not shown) [Example 132]', 'IC50', 'nM', 2130);

Next:
Exercise: What measured IC50 is associated with Cc1cc(-c2[nH]c3cnc(C4CCN(C(=O)CN(C)C)CC4)c(F)c3c2C(C)C)cn2ncnc12 [Example 65] on human TLR9 (Homo sapiens (Human), UniProt Q9NR96)?
Solution: 3320
